Assignment: determine reported inhibition for the given compounds.
# study target: DNA topoisomerase 1 (Homo sapiens) (UniProt P11387)
# Sequence (whole entry): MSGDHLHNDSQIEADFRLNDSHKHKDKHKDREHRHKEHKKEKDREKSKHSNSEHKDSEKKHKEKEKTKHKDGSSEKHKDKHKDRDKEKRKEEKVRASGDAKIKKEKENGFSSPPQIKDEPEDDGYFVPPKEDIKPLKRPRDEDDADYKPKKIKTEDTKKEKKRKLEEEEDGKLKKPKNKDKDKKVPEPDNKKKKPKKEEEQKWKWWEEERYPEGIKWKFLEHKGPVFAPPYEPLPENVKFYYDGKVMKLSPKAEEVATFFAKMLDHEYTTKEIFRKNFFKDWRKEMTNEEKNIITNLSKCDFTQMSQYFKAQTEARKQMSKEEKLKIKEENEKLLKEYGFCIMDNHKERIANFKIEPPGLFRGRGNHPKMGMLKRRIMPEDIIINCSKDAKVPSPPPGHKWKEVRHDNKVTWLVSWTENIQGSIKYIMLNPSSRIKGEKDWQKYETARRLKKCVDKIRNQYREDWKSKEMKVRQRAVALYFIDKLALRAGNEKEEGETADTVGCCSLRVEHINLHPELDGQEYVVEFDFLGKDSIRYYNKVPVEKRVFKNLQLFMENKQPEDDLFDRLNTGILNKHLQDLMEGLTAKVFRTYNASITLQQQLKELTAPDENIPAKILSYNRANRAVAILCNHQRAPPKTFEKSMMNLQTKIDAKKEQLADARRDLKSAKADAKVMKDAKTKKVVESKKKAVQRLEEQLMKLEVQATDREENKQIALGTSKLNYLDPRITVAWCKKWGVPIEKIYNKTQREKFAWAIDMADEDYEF
# procedure details: Inhibition of human topoisomerase 1 at 20 uM relative to control
One number for each entry, in %.

Solved entries:
>>> df
                structure_smiles_string                              study_target  measured_property  result
0    COc1cc(O)ccc1C(=O)/C=C/c1ccc(F)cc1  DNA topoisomerase 1 (Homo sapiens) (UniProt P11387)         inhibition    61.6
1  COc1ccc(C(=O)/C=C/c2ccc(F)cc2)c(O)c1  DNA topoisomerase 1 (Homo sapiens) (UniProt P11387)         inhibition      60
2   COc1ccc(/C=C/C(=O)c2ccc(O)cc2)cc1Br  DNA topoisomerase 1 (Homo sapiens) (UniProt P11387)         inhibition     6.6

// batch mode: one inhibition value per listed entry
1. COc1ccc(C(=O)/C=C/c2ccc(OC)c(Br)c2)c(O)c1
2. O=C(/C=C/c1ccc(F)cc1)c1ccc(O)cc1

1: 3.8; 2: 18

---

# study target: DNA topoisomerase 1 (Homo sapiens) (UniProt P11387)
# procedure details: Inhibition of human topoisomerase 1 at 100 uM relative to control
measured property: inhibition (%)
Numbers only, in %.

                  structure_smiles_string                              study_target  measured_property  result
0  O=C(/C=C/c1ccc(N2CCCC2)cc1)c1ccc(O)cc1  DNA topoisomerase 1 (Homo sapiens) (UniProt P11387)         inhibition    74.7

Required: inhibition, one value per compound below.
1. O=C(/C=C/c1ccc(N2CCCC2)cc1)c1ccc(O)cc1O
2. O=C(/C=C/c1ccc(N2CCCC2)cc1)c1ccc([N+](=O)[O-])cc1
3. O=C(/C=C/c1ccc(N2CCCC2)cc1)c1ccc(F)cc1
4. COc1ccc(/C=C/C(=O)c2ccc(O)cc2O)cc1Br
5. COc1ccc(/C=C/C(=O)c2ccc(O)cc2)cc1Br
6. COc1cc(O)ccc1/C=C/C(=O)c1ccc(F)cc1
7. COc1ccc(/C=C/C(=O)c2ccc(F)cc2)cc1Br

1. 87.1
2. 91.1
3. 90.6
4. 73.2
5. 24.8
6. 95.8
7. 76.5

Record inhibition for all entries; do not skip any.
1. O=C(/C=C/c1ccc(F)cc1)c1ccc(O)cc1O
2. COc1ccc(C(=O)/C=C/c2ccc(F)cc2)c(O)c1
3. COc1ccc(/C=C/C(=O)c2cccs2)cc1Br
4. COc1ccc(C(=O)/C=C/c2ccc(OC)c(Br)c2)c(O)c1
5. COc1cc(O)ccc1/C=C/C(=O)c1ccc(NC(C)=O)cc1

1. 80.2
2. 81.2
3. 74.4
4. 5
5. 100

---

# study target: Procathepsin L (Homo sapiens, UniProt P07711)
# Sequence (P07711 whole entry): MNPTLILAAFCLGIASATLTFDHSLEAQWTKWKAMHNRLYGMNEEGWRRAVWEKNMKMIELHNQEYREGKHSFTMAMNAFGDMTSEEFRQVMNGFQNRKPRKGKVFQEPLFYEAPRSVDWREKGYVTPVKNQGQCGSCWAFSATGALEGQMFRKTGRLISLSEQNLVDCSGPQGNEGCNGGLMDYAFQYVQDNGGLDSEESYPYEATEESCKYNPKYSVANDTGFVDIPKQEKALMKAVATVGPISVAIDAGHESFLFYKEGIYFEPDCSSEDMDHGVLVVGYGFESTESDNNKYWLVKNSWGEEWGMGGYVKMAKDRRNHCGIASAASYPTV
So I've got a bunch of molecules here, and I need their IC50 values.

Some solved entries appear below for comparison.
In [3]: df
Out[3]:
               structure_smiles_string                              study_target  measured_property    result
0  COc1ccc(/C=C/C(=O)c2ccc(F)cc2)cc1Br  Procathepsin L (Homo sapiens, UniProt P07711)               IC50  > 100 µM
1      COc1ccc(/C=C/C(=O)c2cccs2)cc1Br  Procathepsin L (Homo sapiens, UniProt P07711)               IC50  > 100 µM

Read the next record carefully.
Quick one: IC50 for "O=C(/C=C/c1ccc(F)cc1)c1ccc(O)cc1" ?
> 100 µM

---

Exercise: for every item that follows, state its recorded pIC50.
# study target: Cathepsin B (Homo sapiens)
# procedure details: Inhibition of cathepsin B (unknown origin) using RR-AMC as substrate after 30 mins by fluorescence assay
Give bare numbers, as −log10 of the molar value.

// batch mode: one pIC50 value per listed entry
1. COc1cc(O)ccc1/C=C/C(=O)c1ccc(N)cc1
2. O=C(/C=C/c1ccc(N2CCCC2)cc1)c1ccc(F)cc1

1. 4.12
2. 4.27

---

Please provide measured inhibition for the entries that follow.
# study target: DNA topoisomerase 1 (Homo sapiens)
# procedure details: Inhibition of human topoisomerase 1 at 20 uM relative to control
One number for each entry, in %.

>>> print(df.to_string())
                    structure_smiles_string                        study_target  measured_property  unit_name  result
0  O=C(/C=C/c1ccc(N2CCCC2)cc1)c1ccc([N+](=O)[O-])cc1  DNA topoisomerase 1 (Homo sapiens)         inhibition          %    77.6
1    O=C(/C=C/c1ccc(N2CCCC2)cc1)c1ccc(F)cc1  DNA topoisomerase 1 (Homo sapiens)         inhibition          %    73.1
2           COc1ccc(/C=C/C(=O)c2ccco2)cc1Br  DNA topoisomerase 1 (Homo sapiens)         inhibition          %     8.8

Then there is this compound:
Dear colleague, I am looking for the recorded inhibition of the following compound: "COc1ccc(/C=C/C(=O)c2ccc(F)cc2)cc1Br"
20.1

---

# study target: Cathepsin B (Homo sapiens)
pIC50: −log10 of the molar value.
measured property: pIC50

>>> print(df.to_string())
               structure_smiles_string  result
0      COc1ccc(/C=C/C(=O)c2cccs2)cc1Br  < 4.00
1  COc1ccc(/C=C/C(=O)c2ccc(O)cc2)cc1Br  < 4.00

Next item in the queue.
Which pIC50 reading was recorded for the compound "COc1cc(O)ccc1C(=O)/C=C/c1ccc(F)cc1" ?
< 4.00
